Biological target: Alpha-1A adrenergic receptor (Homo sapiens, UniProt P35348)
Sequence (P35348 whole entry): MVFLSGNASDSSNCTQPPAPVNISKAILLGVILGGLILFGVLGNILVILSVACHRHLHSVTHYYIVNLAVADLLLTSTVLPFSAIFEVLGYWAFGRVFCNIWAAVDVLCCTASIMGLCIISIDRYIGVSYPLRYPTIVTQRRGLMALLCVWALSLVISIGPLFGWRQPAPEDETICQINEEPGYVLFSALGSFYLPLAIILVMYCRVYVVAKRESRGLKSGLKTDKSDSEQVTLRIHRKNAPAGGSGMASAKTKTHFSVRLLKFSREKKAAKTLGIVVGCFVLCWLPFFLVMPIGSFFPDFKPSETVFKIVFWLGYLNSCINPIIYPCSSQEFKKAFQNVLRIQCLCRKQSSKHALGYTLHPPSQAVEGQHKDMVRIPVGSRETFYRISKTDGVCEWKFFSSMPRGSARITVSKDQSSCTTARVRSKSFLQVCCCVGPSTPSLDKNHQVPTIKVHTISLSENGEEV
Test: Displacement of [125I]BE-2254 from human adrenergic alpha1A receptor expressed in HEK293 cells
Assay type: cell-based
EXPERIMENTAL ENDPOINT: log10(Ki) (log10 of the value in µM)
All values: log10 Ki [µM].

Solved cases below.
| STRUCTURE SMILES | log10(Ki) |
| --- | --- |
| COc1ccccc1N1CCN(CCCCN2C(=O)CC(C)(c3ccccc3)CC2=O)CC1 | -1.65 |
| COc1ccccc1N1CCN(CCCCCN2C(=O)CC(c3ccccc3)CC2=O)CC1 | -1.66 |
| COc1ccc(Cl)cc1N1CCN(CCCCN2C(=O)CC(C)(c3ccccc3)CC2=O)CC1 | -1.02 |
| O=C1CC(c2ccc(Cl)cc2)CC(=O)N1CCCN1CCN(c2ccccc2Cl)CC1 | -1.31 |
| COc1ccc(Cl)cc1N1CCN(CCCN2C(=O)CC(C)(c3ccccc3)CC2=O)CC1 | -1.46 |
| O=C1CC(c2ccc(Cl)cc2)CC(=O)N1CCN1CCN(c2ccccc2Cl)CC1 | 0.84 |
| COc1ccccc1N1CCN(CCN2C(=O)CC(c3ccccc3)CC2=O)CC1 | 0.54 |
| COc1ccccc1N1CCN(CCCN2C(=O)CC(C)(c3ccccc3)CC2=O)CC1 | -1.99 |

Query: Jot down log10(Ki) (Alpha-1A adrenergic receptor (Homo sapiens, UniProt P35348)) of `COc1ccccc1N1CCN(CCCN2C(=O)CC(c3ccc([N+](=O)[O-])cc3)CC2=O)CC1` .
Reply: -1.85

Query: For Alpha-1A adrenergic receptor (Homo sapiens, UniProt P35348), give the measured log10(Ki) of the entry `O=C1CC(c2ccccc2)CC(=O)N1CCCCN1CCN(c2ccccc2Cl)CC1`
Reply: -1.80

Query: Report value: log10(Ki), system: Alpha-1A adrenergic receptor (Homo sapiens, UniProt P35348), compound: `O=C1CC(c2ccccc2)CC(=O)N1CCN1CCN(c2ccccc2Cl)CC1`
Reply: 0.51

Query: Report value: log10(Ki), system: Alpha-1A adrenergic receptor (Homo sapiens, UniProt P35348), compound: `COc1ccccc1N1CCN(CCCN2C(=O)CC(c3ccccc3)CC2=O)CC1`
Reply: -1.33

Query: # assay system Alpha-1A adrenergic receptor (Homo sapiens, UniProt P35348): give log10(Ki) of `COc1ccccc1N1CCN(CCCCN2C(=O)CC(c3ccc(Cl)cc3)CC2=O)CC1`
Reply: -1.17
